Recorded values, source patent US6613718B2.

# Test system: sicklepod (Cassia obtusifolia, CASOB)
# Assay Method Text: Post-emerge greenhouse herbicide activity screening, phytotoxicity rating
# Assay type: in vivo
# Condition Summary: 31.3 g ai/ha
Readout: CASOB phytotoxicity rating (0-100 scale)

• Cn1c(C(F)(F)F)cc(=O)n(-c2cc(Oc3ncccn3)c(Cl)cc2F)c1=S [Compound 1-1] = 95
• Cn1c(=S)n(C)c(=O)n(-c2cc(Oc3ccccc3[N+](=O)[O-])c(Cl)cc2F)c1=O [Compound 2-17] = 0
• Cn1c(=S)n(C)c(=O)n(-c2cc(Oc3ncccn3)c(Cl)cc2F)c1=O [Compound 2-1] = 60
• Cn1c(C(F)(F)F)cc(=O)n(-c2cc(Oc3ccccc3[N+](=O)[O-])c(Cl)cc2F)c1=S [Compound 1-49] = 60
